Record form. Attribute: GI50. Fill in for each entry.
Test system: TK-10
assay.text: NCI tumour cell line growth inhibition, 48 h
Active and inactive are the calls of the source. Cut-off read from the data, not from the text of the source: active = GI50 up to about 1.1 µM and inactive = higher.

// query GI50 value for entry O=C1Nc2cccc(Cl)c2/C1=C\c1c(Cl)nc2n1CCS2 60.7 µM (inactive)

Same thing, different compound: CC(OC(C)(C)C)[C@H](NC(=O)OCC(Cl)(Cl)Cl)C(=O)O (some centres undefined) > 100 µM (inactive)

Same thing, different compound: CC(=O)OCC1OC(n2c3c(c(-c4ccc(Cl)cc4)c(C#N)c2=S)C(=O)CC(C)(C)C3)C(OC(C)=O)C(OC(C)=O)C1OC(C)=O (centres undefined) > 100 µM (inactive)

Same thing, different compound: COc1nc(NC2OC(COC(C)=O)C(OC(C)=O)C(OC(C)=O)C2OC(C)=O)c2c(OC(C)=O)c(C)c(=O)oc2n1 (centres undefined) > 100 µM (inactive)

Same thing, different compound: c1ccc(SC2CCSc3ccccc3C2Sc2ccccc2)cc1 (centres undefined) > 100 µM (inactive)

Same thing, different compound: Cc1cc(Cl)ccc1NC(=O)C(=O)Cc1ccc([N+](=O)[O-])c([N+](=O)[O-])c1CC(=O)C(=O)Nc1ccc(Cl)cc1C > 100 µM (inactive)

Same thing, different compound: COc1ccc2c(c1)O[C@@H]1C(O)Oc3cc(OC)c(OC)cc3[C@]1(O)C2=O (some centres undefined) > 100 µM (inactive)

Same thing, different compound: COc1ccc(/C=C2\N=C(SC)N(C)C2=O)cc1 > 100 µM (inactive)

Same thing, different compound: COc1cc2c3c(c1)c1cc(OC)c(OC)cc1c[n+]3CC2 > 50 µM (inactive)

----------
Tested on: UACC-62
assay.text: NCI tumour cell line growth inhibition, 48 h
The source made the active and inactive calls. Cut-off read from the data, not from the text of the source: active = GI50 up to about 1.1 µM and inactive = higher.
// one of active, inactive, no free text

What classification did O=c1[nH]nc(-c2ccc([N+](=O)[O-])cc2)[nH]1 end up with in this test? inactive

Same thing, different compound: COC(=O)C(Cc1ccccc1)NP(=O)(O)OCC1OC(n2cc(I)c(=O)[nH]c2=O)CC1O (stereo not drawn) inactive

Same thing, different compound: CCOC(OC1=C(C#N)CCC1)C(C)[Se]c1ccccc1 (stereo not drawn) inactive

Same thing, different compound: COc1cc2[nH]c3c(c2cc1OC)CCN[C@]31CC[C@]2(CC3c4c(cc(OC)c(O)c42)CCN3C)C[C@H]1OC (stereo partly drawn) inactive

Same thing, different compound: CC(C)=NNC(=S)NC12CC3CC(CC(C3)C1)C2 inactive

Same thing, different compound: COc1ccc(OC2OC(COC(c3ccccc3)(c3ccc(OC)cc3)c3ccc(OC)cc3)C(O)C(O)C2O)cc1 (stereo not drawn) inactive

Same thing, different compound: Cc1cc(Cl)ccc1NC(=O)C(=O)Cc1ccc([N+](=O)[O-])c([N+](=O)[O-])c1CC(=O)C(=O)Nc1ccc(Cl)cc1C inactive

Same thing, different compound: COc1cc2c(cc1OC)C(C#N)N(C(=O)c1ccccc1)C=C2OC(=O)c1ccccc1 (stereo not drawn) inactive

Same thing, different compound: CO[C@H](/C(C)=C/C=C/C(C)=C/c1coc(C)n1)[C@H](C)[C@H]1C[C@@H](O)[C@@]2(C)O[C@H]2/C=C/[C@@H](C)[C@@H]2C[C@@H](CC(=O)O2)C[C@H]2O[C@@H]2C(=O)O1 active

Same thing, different compound: NC(=O)NNC(=O)NC12CC3CC(CC(C3)C1)C2 inactive

Same thing, different compound: CC1C(c2ccc3c(c2)OCO3)c2cc3c(cc2OC1N1CCOCC1)OCO3 (stereo not drawn) inactive

Same thing, different compound: CCOC(=O)CC(=O)CSc1c(-c2ccccc2)c(=O)n(-c2ccccc2)c(=S)n1-c1ccccc1 inactive

Same thing, different compound: C=CC(=O)NCNC(=O)C=C inactive

Same thing, different compound: C[C@]12CCC(=O)C=C1CC[C@@H]1C2CC[C@]2(C)c3nn(-c4ccc(F)cc4)nc3CC12 (stereo partly drawn) inactive

Same thing, different compound: Nc1nnc(-c2ccco2)c(-c2ccco2)n1 inactive

Same thing, different compound: CN/N=C(\C)C(CN(C)C)C(c1ccccc1)c1c(O)c2ccccc2oc1=O (stereo not drawn) inactive

Same thing, different compound: O=C1N(CN2CCOCC2)CN(CN2CCOCC2)C(=O)N1Cc1ccc(-c2ccc(CN3C(=O)N(CN4CCOCC4)CN(CN4CCOCC4)C3=O)cc2)cc1 inactive

Same thing, different compound: Cn1c(=O)c2[nH]cnc2n(CC(=O)O)c1=O inactive

Same thing, different compound: Nc1nc(NCCO)c(N=O)c(=O)[nH]1 inactive

Same thing, different compound: Cc1ccc(/N=N/c2c(O)ccc3ccccc23)c(C)c1 inactive

Same thing, different compound: O=C(/C=C/c1cccc2ccccc12)c1ccccc1Cl inactive

Same thing, different compound: C=C(C)[C@@H]1CCC2=C[C@H](CC(C)=CC3=CC(C)=C(O3)[C@@H]1OC)OC2=O inactive

Same thing, different compound: N#CC1(C#N)C(=O)c2ccncc2C1=O inactive

Same thing, different compound: COc1cc2c(/C=C3/C(=O)Nc4ccc(O)cc43)c(Cl)n(Cc3ccccc3)c2cc1C inactive

Same thing, different compound: COc1ccc2[nH]c3c(cnn4cnnc34)c2c1 inactive

Same thing, different compound: COc1cc(/C=C/C(=O)c2c([O-])on[n+]2-c2ccccc2)ccc1O inactive

Same thing, different compound: CC(CCCC1SCC2NC(=O)NC21)C(=O)O (stereo not drawn) inactive

Same thing, different compound: Cc1ccc(S(=O)(=O)NC(=O)Nc2ccc(S(N)(=O)=O)cc2S(N)(=O)=O)cc1 inactive

FYI, the data here is from ChEMBL document CHEMBL1201862.
